Where do these numbers come from? They come from patent US8461120B2.

Kindly supply the reported activity at 8 µM values for the records listed here.
- Tested on: IFNg
- TEST: Suppression of pro-inflammatory responses in isolated cells: IFNg
- Assay type: cell-based
- RECORDED CONDITIONS: read-out: IFNg (% control) at 8 μM
Give bare numbers, in %.

CCCCCNCC(O)CN(C)C1C[C@@H](C)O[C@@H](O[C@@H]2[C@@H](C)[C@H](O[C@H]3C[C@@](C)(OC)[C@@H](O)[C@H](C)O3)[C@@H](C)C(=O)O[C@H](CC)[C@@](C)(O)[C@H](O)[C@@H](C)N(C)C[C@H](C)C[C@@]2(C)O)[C@@H]1O (some centres unmarked)
3.7

For each listed entry, give its activity at 8 µM.
1. CC[C@H]1OC(=O)[C@H](C)[C@@H](O[C@H]2C[C@@](C)(OC)[C@@H](O)[C@H](C)O2)[C@H](C)[C@@H](O[C@@H]2O[C@H](C)CC(N(C)CC(O)COc3ccc(OC)cc3)[C@H]2O)[C@](C)(O)C[C@@H](C)CN(C)[C@H](C)[C@@H](O)[C@]1(C)O (some centres unmarked)
2. CC[C@H]1OC(=O)[C@H](C)[C@@H](O[C@H]2C[C@@](C)(OC)[C@@H](O)[C@H](C)O2)[C@H](C)[C@@H](O[C@@H]2O[C@H](C)CC(N(C)CC(O)COc3ccc(B(O)O)cc3)[C@H]2O)[C@](C)(O)C[C@@H](C)CN(C)[C@H](C)[C@@H](O)[C@]1(C)O (some centres unmarked)
3. CC[C@H]1OC(=O)[C@H](C)[C@@H](O[C@H]2C[C@@](C)(OC)[C@@H](O)[C@H](C)O2)[C@H](C)[C@@H](O[C@@H]2O[C@H](C)CC(N(C)CC(O)COc3cccc(O)c3)[C@H]2O)[C@](C)(O)C[C@@H](C)CN(C)[C@H](C)[C@@H](O)[C@]1(C)O (some centres unmarked)
4. CCCCN(CCCC)CCCNCC(O)CN(C)C1C[C@@H](C)O[C@@H](O[C@@H]2[C@@H](C)[C@H](O[C@H]3C[C@@](C)(OC)[C@@H](O)[C@H](C)O3)[C@@H](C)C(=O)O[C@H](CC)[C@@](C)(O)[C@H](O)[C@@H](C)N(C)C[C@H](C)C[C@@]2(C)O)[C@@H]1O (some centres unmarked)

Result ::
1. 5.7
2. 15.6
3. 96.9
4. 4.3

----------
- Test system: IFNg
- TEST: Suppression of pro-inflammatory responses in isolated cells: IFNg
- Format: cell-based
- RECORDED CONDITIONS: read-out: IFNg (% control) at 8 μM
PROPERTY LABEL: activity at 8 µM (%)
Numbers only, in %.

Query :: # query: activity at 8 µM of entry C[C@@H]1C[C@H]2[C@@H]3CCC4=CC(=O)C=C[C@]4(C)[C@@]3(F)[C@@H](O)C[C@]2(C)[C@@]1(O)C(=O)CO [Dexamethasone, reference compound]
Result :: 4.3

----------
- System: IFNg
- TEST: Suppression of pro-inflammatory responses in isolated cells: IFNg
- Type: cell-based
- RECORDED CONDITIONS: read-out: IFNg (% control) at 8 μM
PROPERTY LABEL: activity at 8 µM (%)
One number for each entry, in %.

CC[C@H]1OC(=O)[C@H](C)[C@@H](O[C@H]2C[C@@](C)(OC)[C@@H](O)[C@H](C)O2)[C@H](C)[C@@H](O[C@@H]2O[C@H](C)CC(N(C)CC(O)COC(=O)CNC(=O)OC(C)(C)C)[C@H]2O)[C@](C)(O)C[C@@H](C)CN(C)[C@H](C)[C@@H](O)[C@]1(C)O (stereo partly shown) [Example 63]
4.4
CC[C@H]1OC(=O)[C@H](C)[C@@H](O[C@H]2C[C@@](C)(OC)[C@@H](O)[C@H](C)O2)[C@H](C)[C@@H](O[C@@H]2O[C@H](C)CC(N(C)CC(O)COC(=O)c3nccc4ccccc34)[C@H]2O)[C@](C)(O)C[C@@H](C)CN(C)[C@H](C)[C@@H](O)[C@]1(C)O (stereo partly shown) [Example 65]
30.9
CCCN(CCO)CC(O)CN(C)C1C[C@@H](C)O[C@@H](O[C@@H]2[C@@H](C)[C@H](O[C@H]3C[C@@](C)(OC)[C@@H](O)[C@H](C)O3)[C@@H](C)C(=O)O[C@H](CC)[C@@](C)(O)[C@H](O)[C@@H](C)N(C)C[C@H](C)C[C@@]2(C)O)[C@@H]1O (stereo partly shown) [Example 50]
4

Query :: # query: activity at 8 µM of entry CC[C@H]1OC(=O)[C@H](C)[C@@H](O[C@H]2C[C@@](C)(OC)[C@@H](O)[C@H](C)O2)[C@H](C)[C@@H](O[C@@H]2O[C@H](C)CC(N(C)CC(O)COc3ccc(C(=O)OC)cc3)[C@H]2O)[C@](C)(O)C[C@@H](C)CN(C)[C@H](C)[C@@H](O)[C@]1(C)O (stereo partly shown) [Example 62]
Result :: 5.3
